Value source: ChEMBL document CHEMBL4321867

experiment: physchem; conditions: buffer, pH 9

[
  {
    "smiles_entry": "C[C@@](CCN1Cc2cc(C#CC#C[C@@H]3C[C@@]3(F)CO)cn2C1=O)(C(=O)NO)S(C)(=O)=O",
    "solubility at 24 h": "> 760 µg/mL"
  },
  {
    "smiles_entry": "CC(=O)N1CC(C#CC#Cc2cc3n(c2)C(=O)N(CC[C@](C)(C(=O)NO)S(C)(=O)=O)C3)C1",
    "solubility at 24 h": "> 780 µg/mL"
  },
  {
    "smiles_entry": "CC(C)(O)CN1CC(C#CC#Cc2cc3n(c2)C(=O)N(CC[C@](C)(C(=O)NO)S(C)(=O)=O)C3)C1",
    "solubility at 24 h": "> 830 µg/mL"
  },
  {
    "smiles_entry": "C[C@@](CCN1Cc2cc(C#CC#CC3CN(CCF)C3)cn2C1=O)(C(=O)NO)S(C)(=O)=O",
    "solubility at 24 h": "> 780 µg/mL"
  },
  {
    "smiles_entry": "C[C@@](CCN1Cc2cc(C#CC#CC3CCN(C4COC4)CC3)cn2C1=O)(C(=O)NO)S(C)(=O)=O",
    "solubility at 24 h": "> 850 µg/mL"
  },
  {
    "smiles_entry": "C[C@@](CCN1Cc2cc(C#CC#C[C@H]3C[C@@H]3[C@@H](O)CO)cn2C1=O)(C(=O)NO)S(C)(=O)=O",
    "solubility at 24 h": "> 780 µg/mL"
  },
  {
    "smiles_entry": "C[C@@](CCN1Cc2cc(C#CC#CC3CN(CC(F)F)C3)cn2C1=O)(C(=O)NO)S(C)(=O)=O",
    "solubility at 24 h": "> 820 µg/mL"
  },
  {
    "smiles_entry": "C[C@@](CCN1Cc2cc(C#CC#CC3CNC3)cn2C1=O)(C(=O)NO)S(C)(=O)=O",
    "solubility at 24 h": "> 710 µg/mL"
  },
  {
    "smiles_entry": "C[C@@](CCN1Cc2cc(C#CC#CC3CN(CCO)C3)cn2C1=O)(C(=O)NO)S(C)(=O)=O",
    "solubility at 24 h": "> 780 µg/mL"
  },
  {
    "smiles_entry": "C[C@@](CCN1Cc2cc(C#CC#C[C@@H]3C[C@H]3[C@H](O)CO)cn2C1=O)(C(=O)NO)S(C)(=O)=O",
    "solubility at 24 h": "> 780 µg/mL"
  },
  {
    "smiles_entry": "C[C@@](CCN1Cc2cc(C#CC#C[C@H]3C[C@]3(F)CO)cn2C1=O)(C(=O)NO)S(C)(=O)=O",
    "solubility at 24 h": "> 760 µg/mL"
  },
  {
    "smiles_entry": "C[C@@](CCN1Cc2cc(C#CC#CC3(CN)CC3)cn2C1=O)(C(=O)NO)S(C)(=O)=O",
    "solubility at 24 h": "> 730 µg/mL"
  },
  {
    "smiles_entry": "CN1CC(F)(C#CC#Cc2cc3n(c2)C(=O)N(CC[C@](C)(C(=O)NO)S(C)(=O)=O)C3)C1",
    "solubility at 24 h": "> 760 µg/mL"
  },
  {
    "smiles_entry": "CCN1CC(C#CC#Cc2cc3n(c2)C(=O)N(CC[C@](C)(C(=O)NO)S(C)(=O)=O)C3)C1",
    "solubility at 24 h": "> 750 µg/mL"
  },
  {
    "smiles_entry": "CN1CC(C#CC#Cc2cc3n(c2)C(=O)N(CC[C@](C)(C(=O)NO)S(C)(=O)=O)C3)C1",
    "solubility at 24 h": "> 730 µg/mL"
  },
  {
    "smiles_entry": "C[C@@](CCN1Cc2cc(C#CC#CCN3CCC(O)CC3)cn2C1=O)(C(=O)NO)S(C)(=O)=O",
    "solubility at 24 h": "> 810 µg/mL"
  }
]
